As shown below, each of these binders has a reported binding score value.
study.system: T1, human insulin (human, UniProt P01308 25-54; P01308 90-110, limits assumed)
T1 construct: Off-target protein in the development risk (polyreactivity) ELISA
T1 sequence (P01308 25-54 limits assumed, chain 1 of 2): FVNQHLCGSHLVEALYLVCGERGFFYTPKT
T1 sequence (P01308 90-110 limits assumed, chain 2 of 2): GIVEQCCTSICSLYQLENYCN
experiment.description: development risk ELISA on insulin

Example cases with answers are listed next.
Look up binding score for this binder: 15G11-DI9 IgG1 (antibody, V domains shown, Human IgG1 format, human Ckappa) VH: QVQLVESGGGLVKPGGSLRLSCAASGFTFSDYSMSWIRQAPGKGLEWVSTISDSGTYTYYPDSVKGRFTISRDNAKNSLYLQMNSLRAEDTAVYYCAREWGDYDGFDFWGQGTLVTVSS VL: DIQMTQSPSSLSASVGDRVTITCRASQEISTYLSWYQQKPGKAPKLLIYAASTLQSGVPSRFSGSGSGTDFTLTISSLQPEDFATYYCLQYDSSPLTFGGGTKVEIK
< 10

Look up binding score for this binder: 15G11-DI3 IgG1 (antibody, V domains shown, Human IgG1 format, human Ckappa) VH: QVQLVESGGGLVKPGGSLRLSCAASGFTFSDYGMSWVRQAPGKGLEWVSTISDSGSYTYYPDSVKGRFTISRDNAKNSLYLQMNSLRAEDTAVYYCARELGDYDGFDYWGQGTLVTVSS VL: DIQMTQSPSSLSASVGDRVTITCRASQEISSYLSWYQQKPGKAPKLLIYAASSLDTGVPSRFSGSGSGTDFTLTISSLQPEDFATYYCLQYDSSPYTFGGGTKVEIK
< 10

Now consider a different binder.
Look up binding score for this binder: 15G11-DI11 IgG1 (antibody, V domains shown, Human IgG1 format, human Ckappa) VH: QVQLVESGGGLVKPGGSLRLSCAASGFTFSDYGMSWVRQAPGKGLEWVSTISDSGSYTYYPDSVKGRFTISRDNAKNSLYLQMNSLRAEDTAVYYCARELGDYDGFDYWGQGTLVTVSS VL: DIQMTQSPSSLSASVGDRVTITCRASQEASSYLSWYQQKPGKAPKLLAYAASSLDSGVPSRFSGSGSGTDFTLTISSLQPEDFATYYCLQYDSSPYTFGGGTKVEIK
< 10
